test: small-molecule microarray binders of probe aDKK1, primary screen, biochemical, biotinylated probe, 635/667 nm fluorescence (AID 1099); details: higher = more signal;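 also: score merges 667nm spot fluorescence with signal to noise across triplicate slides; reference of the scale not given here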
Classes (composite z-score): lo (below 0.2), mid (0.2 to below 0.5), hi (0.5 or more)

Check out these entries, answers already filled in.
{"compound": "CN1C(=O)C2C=CC(C(O)c3ccc([N+](=O)[O-])cc3)N(Nc3ccccc3)C2C1=O (centres undefined)", "label_value": "mid"}
{"compound": "C=CCOC(=O)[C@@H]1[C@H]2C(=O)O[C@H](c3ccccc3)[C@H](c3ccccc3)N2[C@H](c2ccc(OCCOC(=O)[C@H]3C[C@H]4C(=O)N[C@@H](CCCCN(C)C)C(=O)N4[C@H]3c3cccc(OCCO)c3)cc2)[C@@]12C(=O)Nc1ccccc12", "label_value": "mid"}
{"compound": "Cc1c(NC(=O)/C(C#N)=C/C=C/c2ccc([N+](=O)[O-])cc2)c(=O)n(-c2ccccc2)n1C", "label_value": "hi"}
{"compound": "CC1(C)OB(/C=C\\CC(OC(=O)c2ccncc2)c2ccccc2)OC1(C)C (centres undefined)", "label_value": "hi"}

Problem: Categorize the following entry: COC(=O)[C@@]1(Cc2ccc(F)cc2)[C@H]2c3cc(C(=O)N(C)C)n(CCF)c3C[C@H]2CN1C(=O)c1ccccc1
Result: hi

Problem: Which bin should I file COCCOC(=O)N1C(=O)[C@@]2(c3cc(C#CCCO)ccc31)[C@H](c1ccc(O)cc1)N1[C@H](c3ccccc3)[C@H](c3ccccc3)OC(=O)[C@H]1[C@@H]2C(=O)NC[C@H](O)c1ccccc1 under?
Result: lo

Problem: Class (by measured composite z-score) for [N-]=[N+]=NCc1ccccc1C[C@]1(C(=O)N2CCCCC2)COC(c2ccc(OCCCO)cc2)=N1
Result: lo

Problem: Band of CCCCCN1CC=CC23O[C@@H]4/C=C\CCCOC(=O)C4[C@H]2C(=O)N(CCCCCO)[C@@H]3C1=O (some centres undefined) ?
Result: lo
